Listed next: entries and their corresponding %Inh.
tested on: MARK2; settings: concentration: 1 μM, replicates: in singlicate; n = 1;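 further: KINOMEscan kinase panel screen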
METRIC: %Inh (%)

compound_string=COc1cccc(CC(=O)N2CCc3cc(-c4cn(C)c5ncnc(N)c45)ccc32)c1 metric=%Inh quantitative_result=0
compound_string=COc1cccc(-c2nc(-c3ccccc3)[nH]c2-c2ccncc2)c1 metric=%Inh quantitative_result=0
compound_string=Cn1cc(-c2ccc3c(c2)CCN3C(=O)Cc2cc(F)cc(C(F)(F)F)c2)c2c(N)ncnc21 metric=%Inh quantitative_result=9
compound_string=Cl.N#CCc1ccc(Nc2nccc(Nc3ccc(Oc4ccccc4)cc3)n2)cc1 metric=%Inh quantitative_result=0

* * *

tested on: VEGFR2; construct: gene KDR; settings: concentration: 1 μM, replicates: in singlicate; n = 1
Label criterion met when %Inh is strictly below 20%; at or above that, label criterion not met.

compound_string=CC(C)(C)c1ccc(C(=O)Nc2cn3cc(-n4ccnc4)ccc3n2)cc1 discrete_label="criterion met"
compound_string=CS(=O)(=O)c1cccc(CNc2nc(Nc3ccc4c(c3)CCC(=O)N4)ncc2C(F)(F)F)c1 discrete_label="criterion not met"
compound_string=CN(c1ccc(NC(=O)Nc2cccc(Cl)c2)cc1)c1ccnc(N)n1.Cl discrete_label="criterion not met"
compound_string=O=C(O)C(F)(F)F.O=c1[nH]ccc2nc(N[C@@H]3CCNC3)nc(Nc3cc(Cl)cc(Cl)c3)c12 discrete_label="criterion met"
compound_string=CN(C)c1ncnc2nc[nH]c12 discrete_label="criterion met"
compound_string=Cc1ccc(NC(=O)c2ccc(Cl)c(Cl)c2)cc1-c1ccc(C(=O)Nc2ccncc2)cc1 discrete_label="criterion met"
compound_string=Cc1ccc(C)c(NC(=O)Nc2ccc(C)c(-c3ccc(C(=O)Nc4ccncc4)cc3)c2)c1 discrete_label="criterion met"
compound_string=CN(c1ccc2c(c1)nc(NCc1ccccc1)n2C)c1ccnc(Nc2ccc(CS(C)(=O)=O)cc2)n1.Cl discrete_label="criterion not met"
compound_string=CC(C)c1nc(-c2cccc(NS(=O)(=O)c3c(F)cccc3F)c2)c(-c2ccnc(Nc3ccc(N4CCOCC4)nc3)n2)s1.Cl discrete_label="criterion not met"
compound_string=CCNC(=O)/C=C/c1n[nH]c2cc(Sc3ccccc3C(=O)NC)ccc12 discrete_label="criterion not met"
compound_string=COc1cccc(C2=C(Nc3cccc(O)c3)C(=O)NC2=O)c1 discrete_label="criterion met"
compound_string=COC(=O)Nc1nc2ccc(Oc3ccc(CC(=O)Nc4cc(C(F)(F)F)ccc4F)cc3)cc2[nH]1 discrete_label="criterion not met"
compound_string=Cl.N#CCc1ccc(Nc2nccc(Nc3ccc(Oc4ccccc4)cc3)n2)cc1 discrete_label="criterion met"
compound_string=Cn1cc(-c2ccc3c(c2)CCN3C(=O)Cc2cc(F)cc(C(F)(F)F)c2)c2c(N)ncnc21 discrete_label="criterion not met"
compound_string=COc1cccc(CC(=O)N2CCc3cc(-c4cn(C)c5ncnc(N)c45)ccc32)c1 discrete_label="criterion not met"
compound_string=Nc1cccc(-c2ccc3c(N)n[nH]c3c2)c1 discrete_label="criterion met"
compound_string=Cc1ccc(NC(=O)c2cccc(N3CCCCC3)c2)cc1-c1ccc(C(=O)NCC2CC2)cc1 discrete_label="criterion met"

* * *

test system: EPHB6; conditions: concentration: 1 μM, replicates: in singlicate; n = 1
METRIC: %Inh (%)

compound="COc1cccc(NC(=O)NCCNc2ccnc(Nc3ccc(F)cc3)n2)c1 [GSK1379879]" quantitative_result=14
compound="COc1cccc2c(-c3ccncc3)c(-c3ccc(F)cc3)nn12 [GW468513]" quantitative_result=37
compound="CN(C)c1ncnc2nc[nH]c12 [SKF-31736]" quantitative_result=0
compound="Nc1ncnc2scc(-c3ccc(NC(=O)Cc4cc(F)ccc4F)cc3)c12.O=C(O)C(F)(F)F [SB-731254-M]" quantitative_result=98.8
compound="Cn1cc(-c2ccc3c(c2)CCN3C(=O)Cc2cc(F)cc(C(F)(F)F)c2)c2c(N)ncnc21 [GSK2635225]" quantitative_result=44
compound="Cc1ccc(O)cc1Nc1ccnc2ccc(C(C)(C)C)cc12 [GW856805]" quantitative_result=24
compound=CCNC(=O)/C=C/c1n[nH]c2cc(Sc3ccccc3C(=O)NC)ccc12 quantitative_result=20
compound="COC(=O)Nc1nc2ccc(Oc3ccc(NC(=O)Nc4cc(C(F)(F)F)ccc4F)cc3)cc2[nH]1.Cl [GW654607]" quantitative_result=92.4
compound="CN(c1ccc(NC(=O)N2CCN(CCCN3CCOCC3)CC2)cc1)c1ccnc(Nc2ccc(CS(C)(=O)=O)cc2)n1.Cl [GW830899]" quantitative_result=81
compound="CSc1ccc(NC2=C(c3ccc(Cl)cc3)C(=O)NC2=O)cc1 [SB-317658]" quantitative_result=0
compound="Cn1cc(-c2ccc3c(c2)CCN3C(=O)Cc2cc(F)cc(F)c2F)c2c(N)ncnc21 [GSK2634140]" quantitative_result=87
compound="Nc1ncc(-c2ccc3nccc(-c4ccncc4)c3c2)cc1S(=O)(=O)N1CCCCC1 [GSK1693850]" quantitative_result=43
compound="Cc1cccc(Nc2nc(NCCN)ncc2C(N)=O)c1 [GSK1292139]" quantitative_result=50
compound="O=C1NC(=O)C(c2ccccc2Cl)=C1Nc1cccc(Cl)c1 [SB-342409]" quantitative_result=0
compound="Cc1ccc(Nc2ccnc(Nc3ccc(C)c(F)c3)n2)cc1O.Cl [GW582868]" quantitative_result=0
compound="Cl.N#CCc1ccc(Nc2nccc(Nc3ccc(Oc4ccccc4)cc3)n2)cc1 [GW639905]" quantitative_result=46
compound="COc1ccc(C)c(Nc2ccnc(Nc3ccc(-c4cnc[nH]4)cc3)n2)c1.Cl [GW784041]" quantitative_result=69
compound="CN(C)CCOc1ccc(-c2cc(-c3ccc(Cl)c(O)c3)c(-c3ccncc3)[nH]2)cc1.Cl.Cl [SB-684387]" quantitative_result=34
